Test Method Notes: Solubility of the compound in simulated intestinal fluid
Type: physicochemical
Value Kind: solubility (µg/mL)

{"Smiles": "Cc1cc(-n2ccc3nnn([C@@H](C)c4ccc5ncccc5c4)c3c2=O)sn1", "Value Kind": "solubility", "U": "µg/mL", "Observed Measurement": 22.4}

I. COCCOc1cnc2ccc(Cn3nnc4ccn(-c5cc(C)ns5)c(=O)c43)cc2c1
II. Cc1cc(-n2ccc3nnn(Cc4ccc5ncccc5c4)c3c2=O)sn1
III. COCCOc1cnc2ccc([C@H](C)n3nnc4ccn(-c5cc(C)ns5)c(=O)c43)cc2c1
IV. O=C1c2c(nnn2Cc2ccc3ncccc3c2)CCN1c1ccccc1
Order these by solubility, descending, and give the full ranking. Provide your answer as the labels ordered per the instruction. IV, III, I, II

----------
Test Method Notes: Clearance in Sprague-Dawley rat at 0.25 mg/kg, iv
Assay type: ADME, organism-based
Parameters: dose 0.25 mg/kg, route intravenous
Test Conditions: in vivo
Value Kind: clearance (mL/min/kg)

A. COCCOc1cnc2ccc([C@H](C)n3nnc4ccn(-c5cc(C)ns5)c(=O)c43)cc2c1
B. COCCOc1cnc2ccc([C@H](C)n3nnc4ccn(-c5ccc(F)c(F)c5)c(=O)c43)cc2c1
Compare A and B by numeric clearance and name the larger one. Which one? Tell me its label. B
(B: 18.8 mL/min/kg, A: 9.32 mL/min/kg)

----------
Test Method Notes: Intrinsic clearance in mouse liver microsomes
Type: ADME, Microsome
Test Conditions: read-out: CLH
Value Kind: microsomal CLint (µL/min/mg)

I. COCCOc1cnc2ccc([C@H](C)n3nnc4ccn(-c5cc(C)ns5)c(=O)c43)cc2c1
II. COCCOc1cnc2ccc([C@H](C)n3nnc4ccn(-c5ccc(F)c(F)c5)c(=O)c43)cc2c1
Compare I and II by numeric microsomal CLint and name the larger one. Which one? Tell me its label. II
(II: 98 µL/min/mg, I: 68 µL/min/mg)

----------
Test Method Notes: Volume of distribution at steady state in Sprague-Dawley rat at 0.25 mg/kg, iv
Format: ADME, organism-based
Set-up: dose 0.25 mg/kg, route intravenous
Test Conditions: in vivo, read-out: Vdss
Value Kind: Vd (L/kg)

{"Smiles": "COCCOc1cnc2ccc([C@H](C)n3nnc4ccn(-c5cc(C)ns5)c(=O)c43)cc2c1", "Vd [L/kg]": 2.53}
{"Smiles": "COCCOc1cnc2ccc([C@H](C)n3nnc4ccn(-c5ccc(F)c(F)c5)c(=O)c43)cc2c1", "Vd [L/kg]": 2.38}

----------
Test Method Notes: Solubility of the compound in phosphate buffered saline
Assay type: physicochemical
Value Kind: solubility (µg/mL)

Past entries and their recorded results:
{"Smiles": "COCCOc1cnc2ccc([C@H](C)n3nnc4ccn(-c5ccc(F)c(F)c5)c(=O)c43)cc2c1", "U": "µg/mL", "Observed Measurement": 11.1}
{"Smiles": "Cc1cc(N2CCc3nnn(Cc4ccc5ncccc5c4)c3C2=O)sn1", "U": "µg/mL", "Observed Measurement": 2.2}

1. COCCOc1cnc2ccc(Cn3nnc4ccn(-c5cc(C)ns5)c(=O)c43)cc2c1
2. COCCOc1cnc2ccc([C@H](C)n3nnc4ccn(-c5cc(C)ns5)c(=O)c43)cc2c1
3. Cc1cc(-n2ccc3nnn([C@@H](C)c4ccc5ncccc5c4)c3c2=O)sn1
// smallest solubility at index 0, largest at the end Provide your answer as the labels ordered per the instruction. 1, 3, 2

----------
Test Method Notes: Oral bioavailability in Sprague-Dawley rat at 2 mg/kg
Assay type: ADME, organism-based
Test Conditions: in vivo
Value Kind: bioavailability (%)

{"Smiles": "COCCOc1cnc2ccc([C@H](C)n3nnc4ccn(-c5cc(C)ns5)c(=O)c43)cc2c1", "U": "%", "Observed Measurement": 43}
{"Smiles": "COCCOc1cnc2ccc([C@H](C)n3nnc4ccn(-c5ccc(F)c(F)c5)c(=O)c43)cc2c1", "U": "%", "Observed Measurement": 36}

----------
Test Method Notes: Intrinsic clearance in human liver microsomes
Format: ADME, Microsome
Test Conditions: read-out: CLH
Value Kind: microsomal CLint (µL/min/mg)

a. COCCOc1cnc2ccc([C@H](C)n3nnc4ccn(-c5ccc(F)c(F)c5)c(=O)c43)cc2c1
b. COCCOc1cnc2ccc([C@H](C)n3nnc4ccn(-c5cc(C)ns5)c(=O)c43)cc2c1
Compare a and b by numeric microsomal CLint and name the larger one. Which one? Tell me its label. a

----------
Test Method Notes: Solubility of the compound in 0.1N HCl
Assay type: physicochemical
Value Kind: solubility (µg/mL)

Past entries and their recorded results:
{"Smiles": "COCCOc1cnc2ccc(Cn3nnc4ccn(-c5cc(C)ns5)c(=O)c43)cc2c1", "Value Kind": "solubility", "Observed Measurement": 13.7}
{"Smiles": "Cc1cc(-n2ccc3nnn(Cc4ccc5ncccc5c4)c3c2=O)sn1", "Value Kind": "solubility", "Observed Measurement": 80.1}
{"Smiles": "Cc1cc(N2CCc3nnn(Cc4ccc5ncccc5c4)c3C2=O)sn1", "Value Kind": "solubility", "Observed Measurement": 43.2}

1. COCCOc1cnc2ccc([C@H](C)n3nnc4ccn(-c5ccc(F)c(F)c5)c(=O)c43)cc2c1
2. COCCOc1cnc2ccc([C@H](C)n3nnc4ccn(-c5cc(C)ns5)c(=O)c43)cc2c1
Compare 1 and 2 by numeric solubility and name the larger one. Which one? Tell me its label. 1

----------
Test Method Notes: AUC (0 to infinity) in Sprague-Dawley rat at 2 mg/kg, po
Type: ADME, organism-based
Set-up: time infinity, dose 2 mg/kg, route oral
Test Conditions: plasma
Value Kind: AUC(0-inf) (µg·h/mL)

A. COCCOc1cnc2ccc([C@H](C)n3nnc4ccn(-c5ccc(F)c(F)c5)c(=O)c43)cc2c1
B. COCCOc1cnc2ccc([C@H](C)n3nnc4ccn(-c5cc(C)ns5)c(=O)c43)cc2c1
Compare A and B by numeric AUC(0-inf) and name the larger one. Which one? Tell me its label. B
(B: 1.56 µg·h/mL, A: 0.638 µg·h/mL)

----------
Test Method Notes: Half life in Sprague-Dawley rat at 0.25 mg/kg, iv
Assay type: ADME, organism-based
Set-up: dose 0.25 mg/kg, route intravenous
Test Conditions: in vivo
Value Kind: half-life (h)

I. COCCOc1cnc2ccc([C@H](C)n3nnc4ccn(-c5ccc(F)c(F)c5)c(=O)c43)cc2c1
II. COCCOc1cnc2ccc([C@H](C)n3nnc4ccn(-c5cc(C)ns5)c(=O)c43)cc2c1
Compare I and II by numeric half-life and name the larger one. Which one? Tell me its label. II

----------
Test Method Notes: Intrinsic clearance in rat liver microsomes
Type: ADME, Microsome
Test Conditions: read-out: CLH
Value Kind: microsomal CLint (µL/min/mg)

{"Smiles": "COCCOc1cnc2ccc([C@H](C)n3nnc4ccn(-c5cc(C)ns5)c(=O)c43)cc2c1", "microsomal CLint, µL/min/mg": 89}
{"Smiles": "COCCOc1cnc2ccc([C@H](C)n3nnc4ccn(-c5ccc(F)c(F)c5)c(=O)c43)cc2c1", "microsomal CLint, µL/min/mg": 105}

----------
Test Method Notes: Plasma protein binding in rat by equilibrium dialysis
Assay type: ADME, cell-free
Test Conditions: read-out: PPB (converted)
Value Kind: fraction unbound

{"Smiles": "COCCOc1cnc2ccc([C@H](C)n3nnc4ccn(-c5ccc(F)c(F)c5)c(=O)c43)cc2c1", "fraction unbound": 0.02}
{"Smiles": "COCCOc1cnc2ccc([C@H](C)n3nnc4ccn(-c5cc(C)ns5)c(=O)c43)cc2c1", "fraction unbound": 0.018}

----------
Test Method Notes: Plasma protein binding in human by equilibrium dialysis
Type: ADME, cell-free
Test Conditions: read-out: PPB (converted)
Value Kind: fraction unbound

I. COCCOc1cnc2ccc([C@H](C)n3nnc4ccn(-c5ccc(F)c(F)c5)c(=O)c43)cc2c1
II. COCCOc1cnc2ccc([C@H](C)n3nnc4ccn(-c5cc(C)ns5)c(=O)c43)cc2c1
// which entry reports the smaller fraction unbound, I or II ? Which one? Tell me its label. II

----------
Test Method Notes: Plasma protein binding in mouse by equilibrium dialysis
Type: ADME, cell-free
Test Conditions: read-out: PPB (converted)
Value Kind: fraction unbound

I. COCCOc1cnc2ccc([C@H](C)n3nnc4ccn(-c5ccc(F)c(F)c5)c(=O)c43)cc2c1
II. COCCOc1cnc2ccc([C@H](C)n3nnc4ccn(-c5cc(C)ns5)c(=O)c43)cc2c1
Compare I and II by numeric fraction unbound and name the larger one. Which one? Tell me its label. I

Cited source: ChEMBL document CHEMBL2029295
